target: C-C chemokine receptor type 5 (Homo sapiens); experiment: Agonist activity at CCR5 (unknown origin) expressed in MOLT4 cells transfected with Gqi5 assessed as induction of calcium ion mobilization after 15 mins by microplate reader method; type: functional, cell-based; settings: MOLT-4
Sequence (P51681 whole entry, looked up): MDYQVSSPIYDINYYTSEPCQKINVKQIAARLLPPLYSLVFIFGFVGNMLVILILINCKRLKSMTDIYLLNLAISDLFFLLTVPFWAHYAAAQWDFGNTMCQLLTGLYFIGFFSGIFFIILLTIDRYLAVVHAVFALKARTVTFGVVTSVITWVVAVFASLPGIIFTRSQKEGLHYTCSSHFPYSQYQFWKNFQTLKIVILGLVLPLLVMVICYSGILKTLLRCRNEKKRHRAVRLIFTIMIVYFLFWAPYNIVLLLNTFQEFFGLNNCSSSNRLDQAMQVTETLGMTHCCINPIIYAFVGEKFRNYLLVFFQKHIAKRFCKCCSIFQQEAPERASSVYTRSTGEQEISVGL
Activity calls are given as the source filed them. No cut-off for these calls is given here.

chemSmiles	targetUnderTest	Activity
CCN(CC)c1ccc(CN2CCC(c3ccc(OC)c(NC(=O)c4cnccn4)c3)CC2)cc1	C-C chemokine receptor type 5 (Homo sapiens)	inactive
CC(C)Oc1ccc(C2CCN(Cc3ccc(N)cc3)CC2)cc1NC(=O)c1cnccn1	C-C chemokine receptor type 5 (Homo sapiens)	inactive
CCOc1ccc(C2CCN(Cc3ccc([N+](=O)[O-])cc3)CC2)cc1NC(=O)c1cnccn1	C-C chemokine receptor type 5 (Homo sapiens)	inactive
CCOc1ccc(C2CCN(Cc3ccc(N)cc3)CC2)cc1NC(=O)c1cnccn1	C-C chemokine receptor type 5 (Homo sapiens)	inactive
CCOc1ccc(C2CCN(Cc3ccc([N+](=O)[O-])cc3)CC2)cc1NC(=O)c1ccccc1	C-C chemokine receptor type 5 (Homo sapiens)	inactive
COc1ccc(C2CCN(Cc3ccc([N+](=O)[O-])cc3)CC2)cc1NC(=O)c1cnccn1	C-C chemokine receptor type 5 (Homo sapiens)	inactive
CCN(CC)c1ccc(CN2CCC(c3ccc(OC)c(NC(=O)c4ccccc4)c3)CC2)cc1	C-C chemokine receptor type 5 (Homo sapiens)	inactive
COc1ccc(C2CCN(Cc3ccc(N)cc3)CC2)cc1NC(=O)c1cnccn1	C-C chemokine receptor type 5 (Homo sapiens)	inactive
CC(=O)Nc1ccc(CN2CCC(c3ccc(OC(C)C)c(NC(=O)c4ccccc4)c3)CC2)cc1	C-C chemokine receptor type 5 (Homo sapiens)	inactive
CC(C)Oc1ccc(C2CCN(Cc3ccc([N+](=O)[O-])cc3)CC2)cc1NC(=O)c1ccccc1	C-C chemokine receptor type 5 (Homo sapiens)	inactive
CCOc1ccc(C2CCN(Cc3ccc(NC(C)=O)cc3)CC2)cc1NC(=O)c1cnccn1	C-C chemokine receptor type 5 (Homo sapiens)	inactive
COc1ccc(C2CCN(Cc3ccc(NC(C)=O)cc3)CC2)cc1NC(=O)c1ccccc1	C-C chemokine receptor type 5 (Homo sapiens)	inactive
COc1ccc(C2CCN(Cc3ccc(NC(C)=O)cc3)CC2)cc1NC(=O)c1cnccn1	C-C chemokine receptor type 5 (Homo sapiens)	inactive
CCOc1ccc(C2CCN(Cc3ccc(N(CC)CC)cc3)CC2)cc1NC(=O)c1ccccc1	C-C chemokine receptor type 5 (Homo sapiens)	inactive
CC(=O)Nc1ccc(CN2CCC(c3ccc(OC(C)C)c(NC(=O)c4cnccn4)c3)CC2)cc1	C-C chemokine receptor type 5 (Homo sapiens)	inactive
COc1ccc(C2CCN(Cc3ccc(N)cc3)CC2)cc1NC(=O)c1ccccc1	C-C chemokine receptor type 5 (Homo sapiens)	inactive
COc1ccc(C2CCN(Cc3ccc([N+](=O)[O-])cc3)CC2)cc1NC(=O)c1ccccc1	C-C chemokine receptor type 5 (Homo sapiens)	inactive
CC(C)Oc1ccc(C2CCN(Cc3ccc(N)cc3)CC2)cc1NC(=O)c1ccccc1	C-C chemokine receptor type 5 (Homo sapiens)	inactive
CCOc1ccc(C2CCN(Cc3ccc(N(CC)CC)cc3)CC2)cc1NC(=O)c1cnccn1	C-C chemokine receptor type 5 (Homo sapiens)	inactive
CCOc1ccc(C2CCN(Cc3ccc(N)cc3)CC2)cc1NC(=O)c1ccccc1	C-C chemokine receptor type 5 (Homo sapiens)	inactive
CC(C)Oc1ccc(C2CCN(Cc3ccc([N+](=O)[O-])cc3)CC2)cc1NC(=O)c1cnccn1	C-C chemokine receptor type 5 (Homo sapiens)	inactive
CCOc1ccc(C2CCN(Cc3ccc(NC(C)=O)cc3)CC2)cc1NC(=O)c1ccccc1	C-C chemokine receptor type 5 (Homo sapiens)	inactive
CCN(CC)c1ccc(CN2CCC(c3ccc(OC(C)C)c(NC(=O)c4ccccc4)c3)CC2)cc1	C-C chemokine receptor type 5 (Homo sapiens)	inactive
CCN(CC)c1ccc(CN2CCC(c3ccc(OC(C)C)c(NC(=O)c4cnccn4)c3)CC2)cc1	C-C chemokine receptor type 5 (Homo sapiens)	inactive

Data origin: ChEMBL document CHEMBL2434935
